Tested on: Plasmodium falciparum Sir2 (PF13_0152, Sir2A)
Experiment: pfSir2 binders on small-molecule microarrays, primary screen, biochemical, small-molecule microarray, 635 nm fluorescence (AID 1098);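 note: score merges spot fluorescence intensity with its signal-to-noise ratio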
Conditions: small-molecule microarray binding, fluorescence 635 nm; higher = more signal
parameter: composite z-score

- compound: "CO[C@H]1COC(=O)[C@@H]2CCCN2C(=O)CC=C[C@@H](C)[C@H](OC)COC(=O)[C@@H](OCc2ccccc2)C=C[C@@H]1C"
  readout.number: 0.695
- compound: "O=C1[C@H]2[C@H]3[C@H](O)[C@H](O)CC(=NOC[C@@H](O)COCc4ccco4)[C@@H]3CC[C@H]2C(=O)N1C[C@@H]1CCCO1"
  readout.number: 0.396
- compound: "COc1ccc(C#C[C@@H]2C=C[C@H](OC(C)=O)[C@@H](COC(C)=O)O2)cc1"
  readout.number: 0.647
- compound: "CC(C)=NOC[C@@H](C)[C@H](OCc1ccccc1)C(C)C"
  readout.number: -0.229
- compound: "O=c1n(-c2ccccc2)c(=O)n2n1CC[C@@H]1C(=NOCc3ccccc3)[C@H]3O[C@H]3[C@@H](O)[C@@H]12"
  readout.number: -0.494
- compound: "CC(C)CON=C1C[C@@H](O)[C@@H](O)[C@@H]2[C@@H]3C(=O)N(C4CCCCC4)C(=O)[C@@H]3CC[C@@H]12"
  readout.number: 1.17
- compound: "CC[C@@H](c1ccccc1)n1c(=O)n2n(c1=O)[C@H]1[C@H](O)[C@@H]3O[C@@H]3C(=O)[C@H]1CC2"
  readout.number: 1.23
- compound: "CCOC(=O)NN=C1C[C@@H](O)[C@@H](O)[C@@H]2[C@@H]3C(=O)N(c4cccc(Oc5ccccc5)c4)C(=O)[C@@H]3CC[C@H]12"
  readout.number: 0.424
- compound: "COC(=O)[C@@H]1CC[C@H](C)[C@@H](c2ccc(C)cc2)N1C(=O)c1ccc(C=NOCC[C@@H]2C=C[C@H](OC(C)=O)[C@@H](COC(C)=O)O2)cc1"
  readout.number: 0.35
- compound: "Cc1cc2c(nc1C)CCCCN2CC(C)ON=C[C@@H](C)[C@H](OCc1ccccc1)C(C)C (stereo not given in full)"
  readout.number: -0.504
- compound: "CCOC(=O)[C@H](CC(C)C)NC(=O)CCC1CC(OC(=O)NCCc2ccc(F)cc2)CC2(CCCC(COC(=O)NCCC(C)C)O2)O1 (stereo not given in full)"
  readout.number: 0.264
- compound: "COc1ccc(O[C@@H]2[C@H](O)CO[C@@H]2C=Cc2ccccc2)cc1"
  readout.number: 0.638
- compound: "Cc1ccc(S(=O)(=O)N[C@H]2COC(=O)CC=C[C@@H](C)COC(=O)CC=C[C@@H]2C)cc1"
  readout.number: 0.549
- compound: "COc1cccc([C@H]2Oc3ccc(OC)cc3C(=NO[C@H](C)c3cn([C@H](CO)Cc4ccccc4)nn3)[C@@H]2O)c1"
  readout.number: -0.42
- compound: "CCOC(=O)NN=C1C[C@@H](O)[C@@H](O)[C@@H]2[C@@H]3C(=O)N([C@@H](C)c4ccccc4)C(=O)[C@@H]3CC[C@@H]12"
  readout.number: 0.799
